# systemUnderTest: Cellular tumor antigen p53 (Homo sapiens) (UniProt P04637)
# Sequence (P04637 whole entry, looked up): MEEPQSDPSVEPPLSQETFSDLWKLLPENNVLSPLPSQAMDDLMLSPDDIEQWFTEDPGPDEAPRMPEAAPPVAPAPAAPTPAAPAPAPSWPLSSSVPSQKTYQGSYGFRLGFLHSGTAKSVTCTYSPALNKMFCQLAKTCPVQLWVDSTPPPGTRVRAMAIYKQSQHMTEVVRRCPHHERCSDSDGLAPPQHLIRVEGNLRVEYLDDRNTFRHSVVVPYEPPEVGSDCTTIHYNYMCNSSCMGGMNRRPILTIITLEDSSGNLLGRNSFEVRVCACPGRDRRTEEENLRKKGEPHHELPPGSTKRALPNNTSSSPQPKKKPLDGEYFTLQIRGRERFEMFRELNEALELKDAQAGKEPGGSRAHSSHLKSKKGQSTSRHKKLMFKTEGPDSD
# assayDetails: TOX21_p53_BLA_p5_ratio: Tox21 HCT-116 p53 Agonism Beta-lactamase Assay, Ratio, Phase 5 (AID 2283599)
Records with an inconclusive call do not appear. Active and inactive are the calls of the source. How the source made its calls: active means hit-call score of the fitted dose curve at least 0.9, where 1 is the maximum; inconclusive means response in the unintended direction; inactive means score below 0.9.
Field 'call' accepts true = active, false = inactive

Consider the worked cases shown below.
compound="CCCCCC1Nc2cc(C(F)(F)F)c(S(N)(=O)=O)cc2S(=O)(=O)N1 (stereo unspecified)" group=false
compound=CCCCC(=O)O[C@]1(C(=O)CO)[C@@H](C)C[C@H]2[C@@H]3CCC4=CC(=O)C=C[C@]4(C)[C@@]3(F)[C@@H](O)C[C@@]21C group=false
compound=CCOc1ccc([N+](=O)[O-])cc1 group=true

(Q) // return assay outcome for Cc1ncc(C[n+]2csc(CCOP(=O)(O)OP(=O)(O)O)c2C)c(N)n1
(A) false

(Q) // return assay outcome for Cc1c(C)c2c(c(C)c1O)CC[C@@](C)(CCC[C@H](C)CCC[C@H](C)CCCC(C)C)O2
(A) false

(Q) // return assay outcome for CCCCNc1cc(C(=O)O)cc(S(N)(=O)=O)c1Oc1ccccc1
(A) false

(Q) // return assay outcome for CC(=C(CCOP(=O)(O)O)SC(=O)c1ccccc1)N(C=O)Cc1cnc(C)nc1N
(A) false

(Q) // return assay outcome for CCCC(=O)OC(=O)CCC
(A) false

(Q) // return assay outcome for O=C(CC(C(=O)OC1CCCCC1)S(=O)(=O)O)OC1CCCCC1 (stereo unspecified)
(A) false

(Q) // return assay outcome for CN(C)CCOC(=O)COc1ccc(Cl)cc1
(A) false

(Q) // return assay outcome for Cc1ccc2nc(-c3ccc(N)cc3)sc2c1S(=O)(=O)O
(A) false

# credit: PubChem BioAssay (EPA / NIEHS)
